Assay: Half life in human liver microsomes at 1 uM preincubated for 5 mins followed by NADPH addition and measured for 45 mins by LC/MS analysis
Type: ADME, Microsome
Details: microsomes, 0.75 h, 1 µM
Below, each of the compounds is paired with its reported log10(t1/2) value.
Quick note: numbers are log10 of t1/2, with min as the unit.

Worked set:
>  <compound>
Nc1ncccc1-c1cc(Cc2ccc(Oc3ccccn3)cc2)no1

>  <log10(t1/2)>
1.79

$$$$
>  <compound>
Nc1ncccc1-c1cc(Cc2ccc(OCc3ccncc3)cc2)no1

>  <log10(t1/2)>
1.24

$$$$
>  <compound>
Nc1ncccc1-c1cc(Cc2ccc(Cc3ccc(F)o3)cc2)no1

>  <log10(t1/2)>
1.16

$$$$
>  <compound>
Nc1ncccc1-c1cc(Cc2ccc(Cc3ccco3)cc2)no1

>  <log10(t1/2)>
0.50

$$$$
>  <compound>
Nc1ncccc1-c1cc(Cc2ccc(COc3ccccn3)cc2)no1 [MANOGEPIX]

>  <log10(t1/2)>
1.70

$$$$
>  <compound>
Nc1ncccc1-c1cc(Cc2ccc(Nc3ccccc3F)nc2)no1

>  <log10(t1/2)>
1.57

$$$$
>  <compound>
Nc1ncccc1-c1cc(Cc2ccc(OCC3CCC3)nc2)no1

>  <log10(t1/2)>
0.67

$$$$
>  <compound>
Nc1ncccc1-c1cc(Cc2ccc(Oc3cccc(F)n3)cc2)no1

>  <log10(t1/2)>
1.63

$$$$
>  <compound>
Nc1ncccc1-c1cc(Cc2ccc(Oc3cccc(F)c3)nc2)no1

>  <log10(t1/2)>
1.97

$$$$
>  <compound>
Nc1ncccc1-c1cc(Cc2ccc(OCc3cccc(F)c3)nc2)no1

>  <log10(t1/2)>
1.79

$$$$

Let's switch to this compound now.
Qu. // returns reported log10(t1/2) for input Nc1ncccc1-c1cc(Cc2ccc(OCc3ccncc3)nc2)no1
Ans. 1.31

----------
Test system: HepG2
Test: Cytotoxicity against human HepG2 cells assessed as reduction in cell viability at 3 uM by CellTiter-Glo luminescent cell viability assay relative to control
Assay type: cell-based
Conditions: hepg2, 3 µM
measured.metric: Cell viability (% of control)

Worked set:
>  <molecule>
Nc1ncccc1-c1cc(Cc2ccc(COc3ccccn3)cc2)no1 [MANOGEPIX]

>  <value.observed>
98%

$$$$
>  <molecule>
Nc1ncccc1-c1cc(Cc2ccc(Oc3ccccn3)cc2)no1

>  <value.observed>
77%

$$$$
>  <molecule>
Nc1ncccc1-c1cc(Cc2ccc(Oc3cccc(F)n3)cc2)no1

>  <value.observed>
93%

$$$$
>  <molecule>
Nc1ncccc1-c1cc(Cc2ccc(Oc3cccc(F)c3)nc2)no1

>  <value.observed>
102%

$$$$
>  <molecule>
Nc1ncccc1-c1cc(Cc2ccc(OCc3cccc(Cl)c3)nc2)no1

>  <value.observed>
98%

$$$$

Qu. // returns reported Cell viability (% of control) for input Nc1ncccc1-c1cc(Cc2ccc(OCc3cccc(F)c3)nc2)no1
Ans. 97%

----------
Target: PIGW (glucosaminyl-phosphatidylinositol-acyltransferase) (Homo sapiens)
Sequence (Q7Z7B1 whole entry): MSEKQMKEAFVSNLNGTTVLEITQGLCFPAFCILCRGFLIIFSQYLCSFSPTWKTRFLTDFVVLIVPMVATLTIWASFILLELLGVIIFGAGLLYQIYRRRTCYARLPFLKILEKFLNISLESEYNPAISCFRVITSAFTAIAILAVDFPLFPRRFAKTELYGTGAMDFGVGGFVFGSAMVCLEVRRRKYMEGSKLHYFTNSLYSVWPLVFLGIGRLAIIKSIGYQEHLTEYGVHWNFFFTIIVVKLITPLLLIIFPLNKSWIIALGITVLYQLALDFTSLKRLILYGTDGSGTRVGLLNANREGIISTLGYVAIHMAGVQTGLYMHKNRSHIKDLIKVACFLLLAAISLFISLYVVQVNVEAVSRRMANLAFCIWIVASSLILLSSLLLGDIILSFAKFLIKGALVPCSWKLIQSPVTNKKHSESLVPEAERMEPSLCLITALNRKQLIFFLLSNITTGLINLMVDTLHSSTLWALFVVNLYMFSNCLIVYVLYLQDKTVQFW
Experiment: Inhibition of human PIGW expressed in Saccharomyces cerevisiae at 16 uM by spectrophotometric analysis relative to control
Conditions: Saccharomyces cerevisiae expressing human PIGW
measured.metric: inhibition at 16 µM (%)
Express the result in % but write the number alone.

Worked set:
>  <compound>
Nc1ncccc1-c1cc(Cc2ccc(Oc3cccc(F)c3)nc2)no1

>  <inhibition at 16 µM, %>
0

$$$$
>  <compound>
Nc1ncccc1-c1cc(Cc2ccc(OCc3cccc(F)c3)nc2)no1

>  <inhibition at 16 µM, %>
5

$$$$
>  <compound>
Nc1ncccc1-c1cc(Cc2ccc(Oc3cccc(F)n3)cc2)no1

>  <inhibition at 16 µM, %>
0

$$$$

Qu. // returns reported inhibition at 16 µM for input Nc1ncccc1-c1cc(Cc2ccc(COc3ccccn3)cc2)no1 [MANOGEPIX]
Ans. 0

Qu. // returns reported inhibition at 16 µM for input Nc1ncccc1-c1cc(Cc2ccc(OCc3cccc(Cl)c3)nc2)no1
Ans. 80

----------
Target: GPI-anchored wall transfer protein 1 (Candida albicans (strain SC5314 / ATCC MYA-2876) (Yeast)) (UniProt Q873N2)
Sequence (Q873N2 whole entry): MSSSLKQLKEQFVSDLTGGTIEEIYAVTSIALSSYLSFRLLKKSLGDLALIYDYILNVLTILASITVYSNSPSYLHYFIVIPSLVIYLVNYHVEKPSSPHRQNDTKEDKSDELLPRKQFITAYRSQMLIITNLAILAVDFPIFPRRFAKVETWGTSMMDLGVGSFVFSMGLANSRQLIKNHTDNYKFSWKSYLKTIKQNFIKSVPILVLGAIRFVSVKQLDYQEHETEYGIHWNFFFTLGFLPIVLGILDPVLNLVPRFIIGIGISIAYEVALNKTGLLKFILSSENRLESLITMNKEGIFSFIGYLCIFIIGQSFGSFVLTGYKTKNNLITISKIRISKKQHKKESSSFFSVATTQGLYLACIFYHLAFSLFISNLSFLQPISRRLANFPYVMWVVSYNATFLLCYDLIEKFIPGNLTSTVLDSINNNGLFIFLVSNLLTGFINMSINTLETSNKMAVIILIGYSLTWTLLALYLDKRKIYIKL
Assay: Antifungal activity against Candida albicans GWT1 expressed in Saccharomyces cerevisiae assessed as overexpression ratio
Below, each of the molecules is paired with its reported Ratio value.
Give the figure only, with no unit attached.

Worked set:
>  <molecule>
Nc1ncccc1-c1cc(Cc2ccc(OCc3cccc(Cl)c3)nc2)no1

>  <value.observed>
4

$$$$
>  <molecule>
Nc1ncccc1-c1cc(Cc2ccc(COc3ccccn3)cc2)no1 [MANOGEPIX]

>  <value.observed>
8

$$$$
>  <molecule>
Nc1ncccc1-c1cc(Cc2ccc(Oc3cccc(F)c3)nc2)no1

>  <value.observed>
8

$$$$
>  <molecule>
Nc1ncccc1-c1cc(Cc2ccc(Oc3cccc(F)n3)cc2)no1

>  <value.observed>
16

$$$$

Let's switch to this molecule now.
Qu. // returns reported Ratio for input Nc1ncccc1-c1cc(Cc2ccc(OCc3cccc(F)c3)nc2)no1
Ans. 8
